# assay target: T1, recombinant human TL1A (human, UniProt O95150 71-251)
# T1 construct: The ELISA method says only 'recombinant TL1A' coated on plates; homotrimeric cytokine; also called TNFSF15; recombinant TL1A
# T1 chain: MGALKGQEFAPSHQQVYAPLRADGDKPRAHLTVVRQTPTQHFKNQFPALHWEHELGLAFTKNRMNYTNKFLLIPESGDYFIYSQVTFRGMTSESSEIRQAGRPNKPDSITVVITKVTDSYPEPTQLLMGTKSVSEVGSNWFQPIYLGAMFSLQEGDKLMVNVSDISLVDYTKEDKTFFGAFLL
# test protocol: competition ELISA on coated recombinant TL1A; competitor biotinylated TL1A-0002
property label: Bioactivity relative to TL1A-0002 (fold)
Number only, in fold; omit the unit.

Study these solved cases before continuing.
INSERT INTO results (binder, measured_value) VALUES
  ('TL1A-0310 (antibody, V domains shown, IgG1 effector-minimized/kappa) VH: QVQLVQSGAEVKKPGASVKVSCKASGYDFTYYGIGWVRQAPGQGLEWMGWISTYGGNTHYAPSLQGRVTMTTDTSTSTAYMELRSLRSDDTAVYYCARESYYGSGAFRGGMDVWGQGTTVTVSS VL: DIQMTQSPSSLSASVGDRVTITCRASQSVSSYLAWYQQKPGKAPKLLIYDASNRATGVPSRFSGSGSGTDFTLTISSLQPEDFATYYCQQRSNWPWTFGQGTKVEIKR', 14.8),
  ('TL1A-0283 (antibody, V domains shown, IgG1 effector-minimized/kappa) VH: QVQLVQSGAEVKKPGASVKVSCKASGYDFSYYGISWVRQAPGQGLEWMGWISTYGGNTHYAPSLQGRVTMTTDTSTSTAYMELRSLRSDDTAVYYCARESYYGSGAHRGGMDVWGQGTTVTVSS VL: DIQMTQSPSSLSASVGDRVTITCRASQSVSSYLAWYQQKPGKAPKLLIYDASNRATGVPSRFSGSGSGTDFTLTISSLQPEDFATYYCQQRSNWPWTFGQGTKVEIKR', 48.9);

Now for a further binder.
Prompt line: What measured Bioactivity relative to TL1A-0002 goes with TL1A-0246 (antibody, V domains shown, IgG1 effector-minimized/kappa) VH: QVQLVQSGAEVKKPGASVKVSCKASGYDFTYYGISWVRQAPGQGLEWMGWISTYNTGTHYAPSLQGRVTMTTDTSTSTAYMELRSLRSDDTAVYYCARESYYGSGAFRGGMDVWGQGTTVTVSS VL: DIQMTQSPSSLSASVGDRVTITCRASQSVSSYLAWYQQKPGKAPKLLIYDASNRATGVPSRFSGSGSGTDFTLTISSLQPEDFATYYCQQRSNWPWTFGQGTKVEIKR ?
Response line: 2.6
